Values were extracted from patent US20250019374A1.

Could you please report measured Dihydrobenzofuran or Indoline x-fold>potency cellular for the items listed next?
system: IFNγ-induced STAT1 phosphorylation (pSTAT1) in B16F10 cells; assay: B16F10 Phospho-STAT1 HTRF proximal pharmacodynamic (PD) assay; assay type: cell-based, murine; conditions: x-fold versus corresponding chromane comparator, B16F10 pSTAT1
# output: bare number, no unit

Entry O=C1CN(c2c(O)cc3c(c2F)C[C@H](CNCC2CCOCC2)N3)S(=O)(=O)N1 : Dihydrobenzofuran or Indoline x-fold>potency cellular on IFNγ-induced STAT1 phosphorylation (pSTAT1) in B16F10 cells = 20.6

Entry O=C1CN(c2c(O)cc3c(c2F)C[C@H](CNCCC(F)F)N3)S(=O)(=O)N1 : Dihydrobenzofuran or Indoline x-fold>potency cellular on IFNγ-induced STAT1 phosphorylation (pSTAT1) in B16F10 cells = 5.1

* * *

Could you please report measured IC50 for the items listed next?

Entry COCCNC[C@H]1Cc2c(cc(O)c(N3CC(=O)NS3(=O)=O)c2F)N1 : IC50 on His tagged full-length PTPN1 protein (Homo sapiens (Human), UniProt P18031) = 10 to 100 nM

Entry O=C1CN(c2c(O)cc3c(c2F)C[C@H](CNCCC2CCOC2)O3)S(=O)(=O)N1 (stereo partly shown) : IC50 on His tagged full-length PTPN1 protein (Homo sapiens (Human), UniProt P18031) = 10 to 100 nM

Entry O=C1CN(c2c(O)cc3c(c2F)C[C@H](CNCCC2CCOCC2)O3)S(=O)(=O)N1 : IC50 on His tagged full-length PTPN1 protein (Homo sapiens (Human), UniProt P18031) = 10 to 100 nM

Entry CC(C)CNC[C@@H]1Cc2c(cc(O)c(N3CC(=O)NS3(=O)=O)c2F)N1 : IC50 on His tagged full-length PTPN1 protein (Homo sapiens (Human), UniProt P18031) = > 100 nM

* * *

target: His tagged full-length PTPN1 protein (Homo sapiens (Human), UniProt P18031)
Sequence (P18031 whole entry): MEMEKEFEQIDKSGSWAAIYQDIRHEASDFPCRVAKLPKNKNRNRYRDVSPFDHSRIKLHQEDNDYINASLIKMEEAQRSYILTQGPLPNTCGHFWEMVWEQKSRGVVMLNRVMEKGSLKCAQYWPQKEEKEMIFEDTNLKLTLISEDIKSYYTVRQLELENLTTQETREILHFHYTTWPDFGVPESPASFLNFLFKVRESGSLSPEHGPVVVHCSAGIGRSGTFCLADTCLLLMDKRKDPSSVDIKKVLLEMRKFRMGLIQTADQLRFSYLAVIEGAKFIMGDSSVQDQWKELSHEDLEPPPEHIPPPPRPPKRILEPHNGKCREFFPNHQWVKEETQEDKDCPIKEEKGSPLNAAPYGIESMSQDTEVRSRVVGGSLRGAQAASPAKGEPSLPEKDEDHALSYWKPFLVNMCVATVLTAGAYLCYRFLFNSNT
ASSAY_READOUT: IC50

Entry CCCCNC[C@H]1Cc2c(cc(O)c(N3CC(=O)NS3(=O)=O)c2F)N1 : IC50 on His tagged full-length PTPN1 protein (Homo sapiens (Human), UniProt P18031) = 10 to 100 nM

Entry O=C1CN(c2c(O)cc3c(c2F)C[C@H](CNCCC(F)F)N3)S(=O)(=O)N1 : IC50 on His tagged full-length PTPN1 protein (Homo sapiens (Human), UniProt P18031) = 10 to 100 nM

Entry CC(C)CNC[C@@H]1Cc2c(cc(O)c(N3CC(=O)NS3(=O)=O)c2F)O1 : IC50 on His tagged full-length PTPN1 protein (Homo sapiens (Human), UniProt P18031) = > 100 nM

Entry CC(C)(C)CCNC[C@H]1Cc2c(cc(O)c(N3CC(=O)NS3(=O)=O)c2F)N1 : IC50 on His tagged full-length PTPN1 protein (Homo sapiens (Human), UniProt P18031) = 10 to 100 nM

* * *

tested on: IFNγ-induced STAT1 phosphorylation (pSTAT1) in B16F10 cells; experiment: B16F10 Phospho-STAT1 HTRF proximal pharmacodynamic (PD) assay; format: cell-based, murine; conditions: Mus musculus, B16-F10; Table 3, dihydrobenzofuran or indoline compound (X = O or NH), B16F10 cells; read-out: pSTAT1 EC50
ASSAY_READOUT: EC50 (µM)
Dear colleague, please return just the value in µM, with no unit written.

Lab book: EC50 of O=C1CN(c2c(O)cc3c(c2F)C[C@H](CNCCC2CCOC2)O3)S(=O)(=O)N1 (stereo partly drawn) noted as 1.91

Lab book: EC50 of O=C1CN(c2c(O)cc3c(c2F)C[C@H](CNCC2CC(c4ccccc4)C2)O3)S(=O)(=O)N1 (stereo partly drawn) noted as 1.29

Lab book: EC50 of O=C1CN(c2c(O)cc3c(c2F)C[C@H](CNCC2CCOCC2)N3)S(=O)(=O)N1 noted as 156

Lab book: EC50 of O=C1CN(c2c(O)cc3c(c2F)C[C@H](CNCCCC(F)F)O3)S(=O)(=O)N1 noted as 1.33

Lab book: EC50 of O=C1CN(c2c(O)cc3c(c2F)C[C@H](CNCCC2CCOCC2)O3)S(=O)(=O)N1 noted as 3.09

Lab book: EC50 of O=C1CN(c2c(O)cc3c(c2F)C[C@H](CNCC2C4CCCC42)O3)S(=O)(=O)N1 (mixture of isomers) noted as 3.67

Lab book: EC50 of CC(C)CCNC[C@H]1Cc2c(cc(O)c(N3CC(=O)NS3(=O)=O)c2F)O1 noted as 0.835

* * *

Molecular target: His tagged PTPN2 (TC45) protein (Homo sapiens (Human))
Sequence (P17706 other isoform, or with tags, fused parts or gaps): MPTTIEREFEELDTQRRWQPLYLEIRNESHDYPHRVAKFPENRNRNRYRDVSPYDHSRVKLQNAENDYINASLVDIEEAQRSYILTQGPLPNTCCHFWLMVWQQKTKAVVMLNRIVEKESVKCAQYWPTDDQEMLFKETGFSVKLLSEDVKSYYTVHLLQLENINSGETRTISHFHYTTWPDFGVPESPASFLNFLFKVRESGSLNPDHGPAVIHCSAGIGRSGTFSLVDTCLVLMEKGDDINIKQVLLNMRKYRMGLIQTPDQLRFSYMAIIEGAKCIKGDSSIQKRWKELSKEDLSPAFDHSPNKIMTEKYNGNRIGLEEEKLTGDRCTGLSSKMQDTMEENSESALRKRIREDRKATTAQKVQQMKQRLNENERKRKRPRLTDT
Experiment: PTPN2 Mobility Shift Assay (MSA)
Assay type: biochemical
Conditions: Table 3, dihydrobenzofuran or indoline compound (X = O or NH)
Procedure: Example III-1: Mobility Shift Assay (MSA) Used to Determine Potency of PTPN2 Inhibitors Compound activity was determined using in house His tagged PTPN2 (TC45) protein (SEQ ID NO: 1) in an in vitro enzymatic reaction. The enzymatic assay used to determine activity was a mobility shift assay using a LabChip EZ Reader by Caliper Life Sciences. The enzymatic reaction was carried out in assay buffer (50 mM HEPES pH 7.5, 1 mM EGTA, 10 mM EDTA, 0.01% Tween® 20, and 2 mM DTT). […]
ASSAY_READOUT: IC50 (nM)
Dear colleague, please return just the value in nM, with no unit written.

Lab book: IC50 of O=C1CN(c2c(O)cc3c(c2F)C[C@H](CNCCC(F)F)N3)S(=O)(=O)N1 noted as 15.2

Lab book: IC50 of O=C1CN(c2c(O)cc3c(c2F)C[C@H](CNCCC2CCOC2)O3)S(=O)(=O)N1 (stereo partly shown) noted as 15.8

Lab book: IC50 of CC(C)CCNC[C@H]1Cc2c(cc(O)c(N3CC(=O)NS3(=O)=O)c2F)O1 noted as 17.1

Lab book: IC50 of O=C1CN(c2c(O)cc3c(c2F)C[C@H](CNCCCOCC(F)F)O3)S(=O)(=O)N1 noted as 11.2

* * *

biological target: His tagged PTPN2 (TC45) protein (Homo sapiens (Human)); test: PTPN2 Mobility Shift Assay (MSA); assay type: biochemical; conditions: Table 3, dihydrobenzofuran or indoline compound (X = O or NH)
ASSAY_READOUT: IC50 (nM)
Dear colleague, please return just the value in nM, with no unit written.

Lab book: IC50 of O=C1CN(c2c(O)cc3c(c2F)C[C@H](CNCC2CCOCC2)N3)S(=O)(=O)N1 noted as 21.6

Lab book: IC50 of CC(C)CCNC[C@H]1Cc2c(cc(O)c(N3CC(=O)NS3(=O)=O)c2F)N1 noted as 19.8

Lab book: IC50 of O=C1CN(c2c(O)cc3c(c2F)C[C@H](CNCC2(CF)CC2)O3)S(=O)(=O)N1 noted as 20.9

Lab book: IC50 of O=C1CN(c2c(O)cc3c(c2F)C[C@H](CNCC2CCC(C(F)(F)F)CC2)O3)S(=O)(=O)N1 (some centres unmarked) noted as 4.38

Lab book: IC50 of O=C1CN(c2c(O)cc3c(c2F)C[C@H](CNCCC2CCOCC2)O3)S(=O)(=O)N1 noted as 8.32

Lab book: IC50 of O=C1CN(c2c(O)cc3c(c2F)C[C@H](CNCCCC(F)F)O3)S(=O)(=O)N1 noted as 13.3

Lab book: IC50 of O=C1CN(c2c(O)cc3c(c2F)C[C@H](CNCC2C4CCCC42)O3)S(=O)(=O)N1 (mixture of isomers) noted as 6.06

Lab book: IC50 of CC(C)(C)OC(=O)N1CCC(CNC[C@H]2Cc3c(cc(O)c(N4CC(=O)NS4(=O)=O)c3F)O2)CC1 noted as 13.2

* * *

test system: IFNγ-induced STAT1 phosphorylation (pSTAT1) in B16F10 cells; assay: B16F10 Phospho-STAT1 HTRF proximal pharmacodynamic (PD) assay; format: cell-based, murine; conditions: Mus musculus, B16-F10; Table 3, dihydrobenzofuran or indoline compound (X = O or NH), B16F10 cells; read-out: pSTAT1 EC50
Could you please report measured EC50 for the items listed next?

Lab book: EC50 of O=C1CN(c2c(O)cc3c(c2F)C[C@H](CNCCC(F)F)N3)S(=O)(=O)N1 noted as 0.701 µM

Lab book: EC50 of CC(C)CCNC[C@H]1Cc2c(cc(O)c(N3CC(=O)NS3(=O)=O)c2F)N1 noted as 1.56 µM

Lab book: EC50 of O=C1CN(c2c(O)cc3c(c2F)C[C@H](CNCCCc2ccccc2)O3)S(=O)(=O)N1 noted as 10.8 µM

Lab book: EC50 of O=C1CN(c2c(O)cc3c(c2F)C[C@H](CNCC2(CF)CC2)O3)S(=O)(=O)N1 noted as 22.1 µM
